test system: RARb:RXRa (NR concentration 270 nM, RXRa partner concentration 90 nM); experiment: PBM binding z-score (relative to random genomic background probes); higher = stronger binding; sequences stand for … in GC…GCGATTGACAGCGTAGAATGAAGG
Here the recorded PBM binding z-score is given for each entry.
In your answer, state the number alone without any accompanying words.

Solved cases below.
[[record]]
sequence_entry = "CAAACTAGGTCAGCGGAAGGTCAAAGTCCGCATG"
quantitative_readout = 4.89

[[record]]
sequence_entry = "TCTATTAGTTGATTAGGGGAACCGAAACAGCGGA"
quantitative_readout = 0.416


Sure, the documented PBM binding z-score for `CTCGAAAGGTCGGTTGAGGTTAGTATACGGATAA` is 3.06

---

system: PPARa:RXRa (NR concentration 270 nM, RXRa partner concentration 90 nM); experiment: PBM binding z-score (relative to random genomic background probes); higher = stronger binding; sequences stand for … in GC…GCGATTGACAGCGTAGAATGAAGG
parameter: PBM binding z-score

[[record]]
sequence_entry = "CCGATTGGGGCAAGGTTACCATAACGCACAGCCA"
parameter = "PBM binding z-score"
result = 1.28

[[record]]
sequence_entry = "TAGCCTAGGTAATTCAGGGGCCAGTATAGAAAGC"
parameter = "PBM binding z-score"
result = -0.0424

[[record]]
sequence_entry = "GGAACGAGGGCATTTGAGTTGATAGCATGGCGAT"
parameter = "PBM binding z-score"
result = 1.65

[[record]]
sequence_entry = "TCTAGTTGGTCAAAGGTCACACCCTCGAAATGCG"
parameter = "PBM binding z-score"
result = 6.69

[[record]]
sequence_entry = "TCTTATAGGTAAAAGGTGAAAGTCGGTGTGGTAA"
parameter = "PBM binding z-score"
result = 5.39

[[record]]
sequence_entry = "TCGAGTAGGTTAGGGGCATGCAGAATGGCGTCGA"
parameter = "PBM binding z-score"
result = 1.29

[[record]]
sequence_entry = "CGTTCAAGGTCAAGGTCAGTGAAAGAGACTCGAA"
parameter = "PBM binding z-score"
result = 6.33

[[record]]
sequence_entry = "TCTTGTAGATCAGCAGGTTAAGAAGGCTGGCCAA"
parameter = "PBM binding z-score"
result = 0.674

[[record]]
sequence_entry = "ATACCAAGGTGATCGTGAGGTCGTAGATACTAAC"
parameter = "PBM binding z-score"
result = 1.73

[[record]]
sequence_entry = "TGTCAAAGTTCAACGGTAACGTAAGTATCCACAC"
parameter = "PBM binding z-score"
result = 5.05


Sure, the documented PBM binding z-score for `GCATATAGGCAATACAAGGTGAAAGTCCGATTGT` is 1.12

Sure, the documented PBM binding z-score for `ATCGAAAGGTCGAGGTGTGTATAGAGAAAGGGAA` is 4.43

Sure, the documented PBM binding z-score for `CGTCCAAGGGCAAAGGTCAGTGAAGAGATGACGG` is 5.39

Sure, the documented PBM binding z-score for `CCTAGTGGGCCAAAAAGGTCATTGATGCCGATAA` is 4.56

Sure, the documented PBM binding z-score for `CCTGCTAGGTCAATGGTCAGCTACAGCAGCTCGC` is 2.98

Sure, the documented PBM binding z-score for `CGAACTAGGTCAGAACAGGACAGTGTAGGATGAT` is 3.33

Sure, the documented PBM binding z-score for `ATCGAAAGGTCGTGAGGTGAGGATACAGAAAGGC` is 5.08

Sure, the documented PBM binding z-score for `TCATATAGGTAAAGGTGAAACTCGAACGATATGA` is 3.58

---

test system: PPARg:RXRa (NR concentration 180 nM, RXRa partner concentration 90 nM); test: PBM binding z-score (relative to random genomic background probes); higher = stronger binding; sequences stand for … in GC…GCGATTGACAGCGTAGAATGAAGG
Outcome: Condition met for PBM binding z-score of at least 2; Condition not met for anything lower.

Solved cases (5 shown):
[[record]]
sequence_entry = "TCTAGTTCGTCAAAGGTCACACACTCGAAATGCG"
classification = "Condition met"

[[record]]
sequence_entry = "CGAACTAGTTCAGAACAGGACAGTGAAGGATGAT"
classification = "Condition not met"

[[record]]
sequence_entry = "CCTTACGTGTCAAGGTTATAGCACGGGTGGTACG"
classification = "Condition not met"

[[record]]
sequence_entry = "TCTATTAGTTGATTAGCGCAACCGAAACAGCGGA"
classification = "Condition not met"

[[record]]
sequence_entry = "ATATGTAGGTTATCGGGACATTCAGTTTGCGCAT"
classification = "Condition met"


Exam item: Test whether the sequence `TCTTGTAGATCAATAGAGATTAAGAAAGTGCGCT` records PBM binding z-score of 2 or higher.
Marked response: Condition not met

Exam item: Test whether the sequence `TCATATAGGTAAAAGGTGAGAGTCGGTGTGGTAA` records PBM binding z-score of 2 or higher.
Marked response: Condition met

Exam item: Test whether the sequence `AGTCAAAGTTCAGGACGAGGTAACCTAAAGCACG` records PBM binding z-score of 2 or higher.
Marked response: Condition met

---

test system: PPARg homodimer (NR concentration 180 nM); experiment: PBM binding z-score (relative to random genomic background probes); higher = stronger binding; sequences stand for … in GC…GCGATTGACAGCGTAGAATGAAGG
Outcome: T for PBM binding z-score of at least 1; F for anything lower.

[[record]]
sequence_entry = "CGTCCAAGATCAAAGGTCAGTGAAGAGATGACGG"
classification = "T"


Exam item: Test whether the sequence `TCTTGCAGGCCAGAGGGTCACTCAAGAGGTACGG` records PBM binding z-score of 1 or higher.
Marked response: T

Exam item: Test whether the sequence `AGCTCTAGGTAACAAGTTCAGTGAAAGAGAGGAC` records PBM binding z-score of 1 or higher.
Marked response: F

Exam item: Test whether the sequence `AGAATGAGGTTATACGGAGATCAGGGAAGAAAGT` records PBM binding z-score of 1 or higher.
Marked response: F

Exam item: Test whether the sequence `GGAACGAGGGCATTCGAGTTGATGGCATGGCGAT` records PBM binding z-score of 1 or higher.
Marked response: F

Exam item: Test whether the sequence `AATACAGGGTCACTAGGCCAGAGAAGGTACGAAT` records PBM binding z-score of 1 or higher.
Marked response: T

---

Here the recorded PBM binding z-score is given for each entry.
test system: RXRa DBDmut IVT, anti-RXR (DBD mutation: RXRa K156A/R161A, NR concentration 90 nM); experiment: PBM binding z-score (relative to random genomic background probes); higher = stronger binding; sequences stand for … in GC…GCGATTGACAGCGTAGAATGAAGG
In your answer, state the number alone without any accompanying words.

[[record]]
sequence_entry = "CCAGACAGGTGAGAAGGTAACCCAGCCTCGATTA"
test_target = "RXRa DBDmut IVT, anti-RXR (DBD mutation: RXRa K156A/R161A, NR concentration 90 nM)"
quantitative_readout = -0.131

[[record]]
sequence_entry = "ACTAGCAGGCCAAGTCTGGGTCACTCAAACAAAG"
test_target = "RXRa DBDmut IVT, anti-RXR (DBD mutation: RXRa K156A/R161A, NR concentration 90 nM)"
quantitative_readout = -0.171

[[record]]
sequence_entry = "TCTGCTAGGTCAGTTGGTCAGCTACCGAGCTGCC"
test_target = "RXRa DBDmut IVT, anti-RXR (DBD mutation: RXRa K156A/R161A, NR concentration 90 nM)"
quantitative_readout = 0.34

[[record]]
sequence_entry = "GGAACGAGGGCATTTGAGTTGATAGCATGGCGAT"
test_target = "RXRa DBDmut IVT, anti-RXR (DBD mutation: RXRa K156A/R161A, NR concentration 90 nM)"
quantitative_readout = 3.42

[[record]]
sequence_entry = "CTACCAAGCTGAACAAGGTCGTTGATTACTATTC"
test_target = "RXRa DBDmut IVT, anti-RXR (DBD mutation: RXRa K156A/R161A, NR concentration 90 nM)"
quantitative_readout = 1.3


PBM binding z-score on RXRa DBDmut IVT, anti-RXR (DBD mutation: RXRa K156A/R161A, NR concentration 90 nM) for `CCGTACGGGTCACTGACAGGTTATAGCATTTGGA` is 1.07

PBM binding z-score on RXRa DBDmut IVT, anti-RXR (DBD mutation: RXRa K156A/R161A, NR concentration 90 nM) for `TCGGCTAGGTCAACGATGGTCAGCTAATCTGCTA` is 0.991

---

test system: THRa homodimer (NR concentration 90 nM); experiment: PBM binding z-score (relative to random genomic background probes); higher = stronger binding; sequences stand for … in GC…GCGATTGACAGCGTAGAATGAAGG
parameter: PBM binding z-score
In your answer, state the number alone without any accompanying words.

Solved cases below.
[[record]]
sequence_entry = "CCTGCTAGGTCATGGTCAGCTACTCTACAGTATG"
test_target = "THRa homodimer (NR concentration 90 nM)"
quantitative_readout = 1.42

[[record]]
sequence_entry = "CCTTACGGGTCACTCCGGGTTATAGCATCGGAGT"
test_target = "THRa homodimer (NR concentration 90 nM)"
quantitative_readout = -0.126

[[record]]
sequence_entry = "CTTCGGAGGACAGAAGGTCAGAGCTGTCCGCTTT"
test_target = "THRa homodimer (NR concentration 90 nM)"
quantitative_readout = -0.137

[[record]]
sequence_entry = "GCTGCTAGGTCAAGTGATGGTCAGCTAAAGCTCG"
test_target = "THRa homodimer (NR concentration 90 nM)"
quantitative_readout = 0.545

[[record]]
sequence_entry = "GGAAGGAGGGCAAAGTTGATAGCATCTGTCGACG"
test_target = "THRa homodimer (NR concentration 90 nM)"
quantitative_readout = 0.664

[[record]]
sequence_entry = "TCTAGAAGGCCAGAGGGTCACTCAAGAGGTACGG"
test_target = "THRa homodimer (NR concentration 90 nM)"
quantitative_readout = -0.0793


Sure, the documented PBM binding z-score for `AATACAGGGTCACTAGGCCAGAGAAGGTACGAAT` is 1.18

Sure, the documented PBM binding z-score for `ATACCAAGGTGATCGAGAGGTCGTTGATACTAAC` is 0.902

Sure, the documented PBM binding z-score for `TCTTGTAGATCAAGCAGGTTAAGGAAGCCTGAGT` is -0.359

Sure, the documented PBM binding z-score for `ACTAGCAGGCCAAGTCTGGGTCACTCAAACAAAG` is 0.768

Sure, the documented PBM binding z-score for `CTACCAAGGTGAACCAGGTCGTTGATTACTATTC` is 1.85

Sure, the documented PBM binding z-score for `TCTTGTGGATCAAGCAGGTTAAGAAAGCCTGAGT` is -0.303

Data provenance: the supplement of paper PMC6555819
